All figures here come from paper PMC10687119.

- System: human red blood cells (RBCs)
- Type: cell-based
- measurement-setup: red cells of human
Where a SMILES comes first, the peptide text is derived from it. [ ]: non-standard residue; d: D form. The star is where a group is joined. Lys(Me3) = C[N+](C)(C)CCCC[C@H](N)C(=O)O; Palmitoyl = CCCCCCCCCCCCCCCC(=O)*
quantity-name: HC50 (µg/mL)

compound	units	lt-gt-eq	observed-value
CCCCCCCCCCCCCCCC(=O)N[C@@H](CCCCN)C(=O)N[C@@H](CCCCN)C(=O)N[C@@H](CCCCN)C(=O)N[C@@H](CCCCN)C(N)=O [Peptide 4P, C16-KKKK-NH2] (Palmitoyl-KKKK-NH2)	µg/mL	>	512
CCCCCCCCCCCCCCCCCC(=O)N[C@@H](CCCCN)C(=O)N[C@@H](CCCCN)C(=O)N[C@@H](CCCCN)C(N)=O [Peptide 3S, C18-KKK-NH2]	µg/mL	=	32.11
CCCCCCCCCCCCCCCC(=O)N[C@@H](CCCC[N+](C)(C)C)C(N)=O [Peptide 1Pq, C16-K(Me3)^+-NH2]	µg/mL	=	32.21
CCCCCCCCCCCCCCCC(=O)N[C@@H](CCCC[N+](C)(C)C)C(=O)N[C@@H](CCCC[N+](C)(C)C)C(=O)N[C@@H](CCCC[N+](C)(C)C)C(=O)N[C@@H](CCCC[N+](C)(C)C)C(N)=O [Peptide 4Pq, C16-K(Me3)^+K(Me3)^+K(Me3)^+K(Me3)^+-NH2] (Palmitoyl-[Lys(Me3)][Lys(Me3)][Lys(Me3)][Lys(Me3)]-NH2)	µg/mL	>	512
CCCCCCCCCCCCCCCCCC(=O)N[C@@H](CCCC[N+](C)(C)C)C(N)=O [Peptide 1Sq, C18-K(Me3)^+-NH2]	µg/mL	=	16.13
